Test system: desiccated Salmonella enterica subsp. enterica serovar Enteritidis phage type 30 (ATCC BAA-1045)
Assay: Antimicrobial assay against cells desiccated on stainless-steel coupons
Type: cell-based
Details: 200 mM organic acid, 30-min contact, cells desiccated to 75% ERH
assay.metric: MLR ± SD, Oil with PGPR, 22° C.

> print(dat)
              smiles  recorded.measurement
1    CCCCCCCCCC(=O)O                  0.23
2           CCC(=O)O                  0.89
3        CCCCCC(=O)O                  0.21
4  CCCCCCCCCCCC(=O)O                  0.16
5            CC(=O)O                  0.69

---

Test system: desiccated Salmonella enterica subsp. enterica serovar Enteritidis phage type 30 (ATCC BAA-1045)
Test: Antimicrobial assay against cells desiccated on stainless-steel coupons
Assay type: cell-based
Conditions: 200 mM organic acid, 30-min contact, cells desiccated to 75% ERH
assay.metric: MLR ± SD, Oil with PGPR, 45° C.

> print(dat)
              smiles  recorded.measurement
1            CC(=O)O                  1.42
2  CCCCCCCCCCCC(=O)O                  0.40
3      CCCCCCCC(=O)O                  0.49
4        CCCCCC(=O)O                  0.68
5     CCCCCCCCC(=O)O                  0.39

---

Test system: desiccated Salmonella enterica subsp. enterica serovar Enteritidis phage type 30 (ATCC BAA-1045)
Test: Antimicrobial assay against cells desiccated on stainless-steel coupons
Assay type: cell-based
Conditions: 200 mM organic acid, 30-min contact, cells desiccated to 75% ERH
# MLR ± SD, Oil with PGPR, 45° C. >= 0.3 gives Condition met, anything below gives Condition not met

> print(dat)
             smiles        label.value
1   CCCCCCCCCC(=O)O  Condition not met
2         CCCC(=O)O      Condition met
3        CCCCC(=O)O      Condition met
4      CCCCCCC(=O)O      Condition met
5  CCCCCCCCCCC(=O)O      Condition met
6          CCC(=O)O      Condition met

Cited source for all entries: patent US20250160324A1
